- System: CP194
- test_protocol: qHTS profiling for inhibitors of Plasmodium falciparum proliferation (AID 504749); note: nearly all actives have a fitted effect of over 60% in size
- condition_summary: P. falciparum in erythrocytes, SYBR Green DNA, 72 h; series mostly up to 12.8 µM
Inconclusive results are not listed. Active and inactive are the calls of the source. Calls come from the whole dose curve; as a rule, active = well fitted inhibition curve with a large enough effect; inconclusive = small, poorly fitted or top-dose-only effect; inactive = flat fitted curve, though single readings scatter.
Your answer must be one of the following: TRUE = active, FALSE = inactive

Worked cases, answers included:
Input line: Hi team, can someone confirm the assay call for CC1=C(C(=O)O)N2C(=O)[C@@H](NC(=O)[C@@H](N)c3ccc(O)cc3)[C@@H]2SC1 ?
Output line: FALSE

Input line: Hi team, can someone confirm the assay call for CCOC(=O)O[C@]1(C(=O)COC(=O)CC)CC[C@@H]2[C@@H]3CCC4=CC(=O)C=C[C@@]4(C)[C@H]3[C@H](O)C[C@]21C ?
Output line: FALSE

Input line: Hi team, can someone confirm the assay call for Nc1nc(NC2CC2)c2ncn([C@H]3C=C[C@@H](CO)C3)c2n1 ?
Output line: FALSE

Input line: Hi team, can someone confirm the assay call for CNC[C@H](O)c1ccc(OC(=O)C(C)(C)C)c(OC(=O)C(C)(C)C)c1 ?
Output line: FALSE

***
Input line: Hi team, can someone confirm the assay call for NC(C(=O)O)[C@@H]1CC(Cl)=NO1 (stereo not given in full) ?
Output line: TRUE

Input line: Hi team, can someone confirm the assay call for O=C1O[C@H](CN2CCOCC2)CN1/N=C\c1ccc([N+](=O)[O-])o1 ?
Output line: FALSE

Input line: Hi team, can someone confirm the assay call for COc1ccc(-c2cc(=O)c3c(O)cc(O[C@H]4OC(COC5OC(C)C(O)C(O)[C@H]5O)C(O)C(O)C4O)cc3o2)cc1O (stereo not given in full) ?
Output line: FALSE
